biological target: IGF 3P (Homo sapiens, UniProt P08069); construct: human IGF1R kinase domain residues M954-C1367; made in house; host or cells: baculovirus expression (insect cells); assay: IGF1R kinase assay (LCCA), IGF 3P; type: biochemical
Sequence (P08069 954-1367): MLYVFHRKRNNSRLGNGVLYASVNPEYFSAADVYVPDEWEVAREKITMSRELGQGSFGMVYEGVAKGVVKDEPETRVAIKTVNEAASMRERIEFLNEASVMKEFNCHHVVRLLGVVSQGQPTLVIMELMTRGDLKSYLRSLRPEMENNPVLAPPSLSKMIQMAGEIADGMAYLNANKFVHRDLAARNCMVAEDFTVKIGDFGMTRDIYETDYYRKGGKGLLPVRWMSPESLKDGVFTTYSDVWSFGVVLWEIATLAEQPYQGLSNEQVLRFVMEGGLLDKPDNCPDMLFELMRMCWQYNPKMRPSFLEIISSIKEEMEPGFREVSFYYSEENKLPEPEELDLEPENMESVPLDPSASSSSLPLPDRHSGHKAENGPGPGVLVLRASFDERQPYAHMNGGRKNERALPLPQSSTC
IC50 by entry:
measurement_type: IC50

>>> result("CN1CCN(c2nc(NCc3cc(-c4ccccc4)no3)nc(Nc3cc(C4CC4)n[nH]3)c2Cl)CC1")
"50 to 500 nM"
>>> result("Cc1cc(CNc2nc(Nc3cc(C4CC4)[nH]n3)cc(N3C[C@H]4C[C@@H]3CN4Cc3ccccc3)n2)on1")
"< 50 nM"
>>> result("Cc1cc(CNc2nc(Nc3cc(C4CC4)[nH]n3)cc(NC3CC4CCC(C3)N4C)n2)on1 (stereo not shown)")
"< 50 nM"
>>> result("Cc1cc(Nc2cc(OCCN(C)C)nc(NCc3cc(C)no3)n2)[nH]n1")
"500 to 5000 nM"
>>> result("CCN1CCN(c2cc(Nc3cc(C4CC4)n[nH]3)nc(NCc3cc(C(C)C)no3)n2)CC1")
"< 50 nM"
>>> result("Cc1cc(Nc2cc(C3CC3)[nH]n2)nc(NCc2cc(-c3ccncc3)no2)n1")
"50 to 500 nM"
>>> result("Cc1cc(Nc2cc(N3CCOCC3)nc(NCc3cc(-c4ccccc4)no3)n2)[nH]n1")
"< 50 nM"
>>> result("CN1CCN(c2cc(Nc3cc(C4CC4)[nH]n3)nc(NCc3cc(-c4ccncn4)no3)n2)CC1")
"< 50 nM"
>>> result("CN1CCN(c2cc(Nc3cc(C4CC4)[nH]n3)nc(NCc3cc(-c4nccs4)no3)n2)CC1")
"< 50 nM"
>>> result("CCc1cc(CNc2nc(Nc3cc(C4CC4)n[nH]3)cc(N3CCN(C)CC3)n2)on1")
"< 50 nM"
>>> result("Cc1cc(CNc2nc(Nc3cc(C4CC4)[nH]n3)cc(OCCN3CCCC3)n2)on1")
"< 50 nM"
>>> result("CN(C)CCOc1cc(Nc2cc(C3CC3)[nH]n2)nc(NCc2cc(-c3ccncn3)no2)n1")
"< 50 nM"
>>> result("Clc1c(Nc2cc(C3CC3)n[nH]2)nc(NCc2cc(-c3ccccc3)no2)nc1N1CCOCC1")
"50 to 500 nM"
>>> result("Cc1cc(Nc2cc(C3CC3)[nH]n2)nc(OCc2cc(-c3ccccc3)no2)n1")
"500 to 5000 nM"
>>> result("Cc1cc(Nc2cc(N3CCOCC3)nc(NCc3cc(C)no3)n2)[nH]n1")
"50 to 500 nM"
>>> result("CCc1cc(CNc2nc(Nc3cc(C4CC4)n[nH]3)cc(N3CCOCC3)n2)on1")
"< 50 nM"
